Assay: Stability of cannabinoid and Vitamin E components of Beverage 2 (AB Red) stored at 8° C. and 21-25° C., LCMSMS over 570 days
Details: 8° C., 480 days
test.readout: Stability of Cannabinoids in AB Red (µg/mL)
Please respond with the number in µg/mL and leave the unit unwritten.

What value of Stability of Cannabinoids in AB Red has been recorded for this entry: CCCc1cc(O)c2c(c1)OC(C)(C)[C@@H]1CCC(C)=C[C@@H]21 [THCV, delta-9-tetrahydrocannabivarin]
3.05

What value of Stability of Cannabinoids in AB Red has been recorded for this entry: CCCCCc1cc(O)c(C/C=C(\C)CCC=C(C)C)c(O)c1
4.51

What value of Stability of Cannabinoids in AB Red has been recorded for this entry: CCCCCc1cc2c(c(O)c1C(=O)O)[C@@H]1C=C(C)CC[C@H]1C(C)(C)O2 [D9 THCA, delta-9-tetrahydrocannabinolic acid]
1.28

What value of Stability of Cannabinoids in AB Red has been recorded for this entry: C=C(C)[C@@H]1CCC(C)=C[C@H]1c1c(O)cc(CCCCC)c(C(=O)O)c1O
1.60

What value of Stability of Cannabinoids in AB Red has been recorded for this entry: C=C(C)[C@@H]1CCC(C)=C[C@H]1c1c(O)cc(CCC)cc1O
0.190

Others:
What value of Stability of Cannabinoids in AB Red has been recorded for this entry: CCCCCc1cc(O)c2c(c1)OC(C)(C)[C@@H]1CCC(C)=C[C@@H]21 [D9 THC, delta-9-tetrahydrocannabinol, reference compound]
12.2

What value of Stability of Cannabinoids in AB Red has been recorded for this entry: CCCCCc1cc(O)c2c(c1)OC(C)(C)c1ccc(C)cc1-2
2.66

What value of Stability of Cannabinoids in AB Red has been recorded for this entry: CCCCCc1cc(O)c2c(c1)OC1(C)CCC3C1C2C3(C)C (stereo not drawn)
0.487

What value of Stability of Cannabinoids in AB Red has been recorded for this entry: CCCCCc1cc(O)c2c(c1)OC(C)(CCC=C(C)C)C=C2 (stereo not drawn)
0.274
